// data source = the supplement of paper PMC13172266

Recorded measurements of cell proliferation, one per entry
System: U2932 parental
Test: cell proliferation relative to vehicle (% of vehicle); higher = less growth inhibition
Conditions: 50 nM; 72 h
The answer should be a number; do not append a unit.

Completed entries (count: 3):
[
  {
    "Compound": "CCCS(=O)(=O)Nc1ccc(F)c(C(=O)c2c[nH]c3ncc(Cl)cc23)c1F",
    "Measured on": "U2932 parental",
    "Test value": 95.1
  },
  {
    "Compound": "COc1ccc(-c2nc(N3CCOCC3)c3sc(CN(C)c4ncc(C(=O)NO)cn4)cc3n2)cn1",
    "Measured on": "U2932 parental",
    "Test value": 0.767
  },
  {
    "Compound": "CN1CCN(c2ccc3nc(-c4c(N)c5c(F)cccc5[nH]c4=O)[nH]c3c2)CC1 [Dovitinib (TKI-258, CHIR-258)]",
    "Measured on": "U2932 parental",
    "Test value": 95.1
  }
]

stdin: Please supply the value of reported cell proliferation for the item "C[C@@H]1CC(=O)c2c(ccc3c2C(=O)c2cccc(O)c2C3=O)C1"
stdout: 87.5

stdin: Please supply the value of reported cell proliferation for the item Cn1nnc2c(C(N)=O)ncn2c1=O [Temozolomide]
stdout: 98.8

stdin: Please supply the value of reported cell proliferation for the item "Oc1ccc(-c2nc(-c3ccc(F)cc3)c(-c3ccncc3)[nH]2)cc1"
stdout: 102

stdin: Please supply the value of reported cell proliferation for the item C[C@]1(O)C[C@@H](c2nc(-c3ccc4ccc(-c5ccccc5)nc4c3)c3c(N)nccn32)C1 [OSI-906 (Linsitinib)]
stdout: 99.3
